Tested on: affinity purified β2GPI-dependent antiphospholipid antibody
Assay remarks: Direct binding ELISA, nickel chelate-coated wells charged with recombinant β2GPI proteins (no cardiolipin)
Set-up: species or system human
Conditions used: Ab 6652; O.D. at 550 nm

# Molecule, Maximum O.D.
measured = [
    ("--345: recombinant β2GPI deletion mutant with domains 3, 4, 5 (protein) GRIICPPPSIPTFATLRVYKPSAGNNSLYRDTAVFECLPQHAMFGNDTITCTTHGNWTKLPECREVKCPFPSRPDNGFVNYPAKPTLYYKDKATFGCHDGYSLDGPEEIECTKLGNWSAMPSCKASCKLPVKKATVVYQGERVKIQEKFKNGMLHGDKVSFFCKNKEKKCSYTEDAQCIDGTIEVPKCFKEHSSLAFWKTDASDVKPCGHHHHHH", 0.016),
]
